Sourced from patent US20220177583A1

- SYSTEM TESTED: CLDN3/4 endogenously expressed on LS513 and MCF7 cells
- PROTOCOL DETAILS: FACS dose curve, labelled mAb, LS513 cells
ASSAY READOUT: pEC50
Recall that pEC50 is obtained by taking minus log10 of the concentration measured in molar.

The following binders have reported results that may help.
AB10 (antibody, V domains shown) VH: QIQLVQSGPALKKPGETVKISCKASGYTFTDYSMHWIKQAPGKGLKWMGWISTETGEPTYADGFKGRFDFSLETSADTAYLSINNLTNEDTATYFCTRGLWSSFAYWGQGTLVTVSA VL: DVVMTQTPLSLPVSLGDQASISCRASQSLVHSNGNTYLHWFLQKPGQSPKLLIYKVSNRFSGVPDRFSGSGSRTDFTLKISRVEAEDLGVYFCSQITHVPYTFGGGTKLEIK :: 5.71
AB7 (antibody, V domains shown) VH: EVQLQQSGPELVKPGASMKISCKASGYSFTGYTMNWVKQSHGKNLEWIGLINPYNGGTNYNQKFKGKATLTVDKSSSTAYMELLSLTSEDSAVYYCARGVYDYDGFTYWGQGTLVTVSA VL: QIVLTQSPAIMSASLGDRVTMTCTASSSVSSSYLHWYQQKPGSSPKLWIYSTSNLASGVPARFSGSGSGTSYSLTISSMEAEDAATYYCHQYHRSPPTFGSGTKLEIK :: 6.20
AB11 (antibody, V domains shown) VH: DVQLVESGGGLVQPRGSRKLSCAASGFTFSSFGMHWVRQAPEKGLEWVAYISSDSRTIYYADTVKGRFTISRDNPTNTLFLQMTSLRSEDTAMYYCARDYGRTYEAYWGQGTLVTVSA VL: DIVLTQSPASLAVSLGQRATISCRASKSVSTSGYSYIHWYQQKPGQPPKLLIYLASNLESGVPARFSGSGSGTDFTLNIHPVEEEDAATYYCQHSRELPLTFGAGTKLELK :: 6.31

Entry under review: AB15 (antibody, V domains shown) VH: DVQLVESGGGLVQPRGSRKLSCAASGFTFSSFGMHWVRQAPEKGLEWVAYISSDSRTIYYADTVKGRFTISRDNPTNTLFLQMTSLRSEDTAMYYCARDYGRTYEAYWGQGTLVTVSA VL: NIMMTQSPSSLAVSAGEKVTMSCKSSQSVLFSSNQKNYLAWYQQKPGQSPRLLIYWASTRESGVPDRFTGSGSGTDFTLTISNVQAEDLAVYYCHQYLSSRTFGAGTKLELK . Reported pEC50?
5.30
